From: paper PMC6230386

TARGET_OF_ASSAY: α-glucosidase
ASSAY_TEXT: pNPG hydrolysis at […] nm; Lineweaver-Burk kinetics

SMILES_REPR: Cc1cc2c(C(C)C)c(O)c(O)c(C=O)c2c(O)c1-c1c(C)cc2c(C(C)C)c(O)c(O)c(C=O)c2c1O
UNIT_TAG: nM
IC50: 670
